biological target: UniProtKB P28845; assay: 11β-hsd-1 enzyme assay, percentage of inhibition (3H-cortisone to cortisol, radio-HPLC); type: biochemical; details: 0.1 uM; read-out: % inh @ 0.1 uM
Sequence (P28845 whole entry, species assumed): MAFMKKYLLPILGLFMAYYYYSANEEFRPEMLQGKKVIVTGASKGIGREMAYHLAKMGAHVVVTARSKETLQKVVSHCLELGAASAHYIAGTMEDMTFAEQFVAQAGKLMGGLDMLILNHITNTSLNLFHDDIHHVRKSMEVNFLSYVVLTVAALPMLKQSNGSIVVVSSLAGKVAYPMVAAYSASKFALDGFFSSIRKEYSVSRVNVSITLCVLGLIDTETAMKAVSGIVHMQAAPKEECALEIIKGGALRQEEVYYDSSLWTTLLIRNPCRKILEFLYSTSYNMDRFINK
MEASURE_NAME: inhibition at 0.1 µM (%)

I = CSc1ccc(-c2ccc(S(=O)(=O)Nc3cccc(C)n3)cc2)cc1 [Example 129]
II = Cc1c(Cl)cccc1S(=O)(=O)Nc1cccc(CC(=O)NC23CC4CC(CC(C4)C2)C3)n1 [Example 27]
Task: Compare I and II by numeric inhibition at 0.1 µM and name the larger one. Lab log: write the label of the selected item as the result.
Result: I
(I: 86.3%, II: 1.9%)

P = Cc1cccc(NS(=O)(=O)c2ccc(-c3ccccc3C)cc2C)n1 [Example 172]
Q = CSc1ccccc1-c1ccc(S(=O)(=O)Nc2cccc(C)n2)cc1 [Example 139]
Task: Lowest inhibition at 0.1 µM? choose P or Q Lab log: write the label of the selected item as the result.
Result: Q
(Q: 37.9%, P: 82%)

a = COc1ccc(-c2ccc(S(=O)(=O)Nc3cccc(C)n3)cc2)cc1 [Example 161]
b = Cc1cccc(NS(=O)(=O)c2cccc(Cl)c2C)n1 [Example 34]
c = Cc1c(S(=O)(=O)Nc2cccc(CN(C)C)n2)sc2ccc(Cl)cc12 [Example 84]
Task: Sort ascending by inhibition at 0.1 µM. Output spec: labels arranged per the requested ranking.
Result: c, b, a
(c: 26.4%, b: 48.8%, a: 90.3%)

a = Cc1c(Cl)cccc1S(=O)(=O)Nc1cccc(CC(=O)N2CCSCC2)n1 [Example 10]
b = CCc1cccc(NS(=O)(=O)c2sc3ccc(Cl)cc3c2C)n1 [Example 69]
c = Cc1cccc(NS(=O)(=O)c2c(Cl)nc3sccn23)n1 [Example 80]
Task: Sort ascending by inhibition at 0.1 µM. Output spec: labels arranged per the requested ranking.
Result: c, a, b
(c: 8%, a: 38.7%, b: 100%)

P = Cc1cccc(-c2ccc(S(=O)(=O)Nc3cccc(C)n3)c(C)c2)c1 [Example 189]
Q = Cc1c(Cl)cccc1S(=O)(=O)Nc1cccc(CC(=O)N2CCCC2)n1 [Example 17]
R = CC(=O)Nc1nc(C)c(S(=O)(=O)Nc2cc(C)cc(C)n2)s1 [Example 100]
Task: Sort ascending by inhibition at 0.1 µM. Output spec: labels arranged per the requested ranking.
Result: Q, R, P

A = Cc1cccc(NS(=O)(=O)c2ccc(-c3ccc(CO)cc3)cc2C)n1 [Example 180]
B = C=Cc1ccc(-c2ccc(S(=O)(=O)Nc3cccc(C)n3)cc2)cc1 [Example 127]
Task: Compare A and B by numeric inhibition at 0.1 µM and name the larger one. Lab log: write the label of the selected item as the result.
Result: B

P = Nc1cccc(NS(=O)(=O)c2ccc(C(F)(F)F)cc2)n1 [Example 39]
Q = CCc1cccc(NS(=O)(=O)c2ccc(C(C)C)cc2)n1 [Example 76]
Task: Compare P and Q by numeric inhibition at 0.1 µM and name the larger one. Lab log: write the label of the selected item as the result.
Result: P
